- System: Pr. mirabilis A-9900
- protocol: MIC, tube dilution, Proteus mirabilis A9900
- Format: cell-based
- testSettings: Proteus mirabilis A9900; overnight 37° C.
- Excerpt: Representative compounds of the present invention were subjected to in vitro antibiotic screening against a variety of microorganisms.
Think of 8 µg/mL as a floor: if Minimum Inhibitory Concentration (M.I.C.) stands on it or above, it is label 1; beneath it, label 0.

>>> classname("CC1=C(C(=O)O)N2C(=O)[C@H]([C@@H](C)O)[C@H]2S1 (relative stereo)")
"label 1"
>>> classname("CCC1C(=O)N2C(C(=O)[O-])=C(C)S[C@H]12.[Na+] (stereo partly drawn) [1 (trans)]")
"label 1"
>>> classname("O=C(O)C1=C(COc2ccccc2)S[C@@H]2CC(=O)N12")
"label 1"
>>> classname("NC1CCC(C2=C(C(=O)O)N3C(=O)C[C@H]3S2)C1 (single isomer, unassigned) [98 isomer A]")
"label 0"
>>> classname("NC1CCC(C2=C(C(=O)O)N3C(=O)C[C@H]3S2)C1 (single isomer, unassigned) [98 isomer B]")
"label 0"
>>> classname("CC1=C(C(=O)O)N2C(=O)C[C@H]2S1 [Preparation 4(+), (+)-2-Methylpenem-3-carboxylic Acid]")
"label 0"
>>> classname("O=C([O-])C1=C(COCc2ccccc2)S[C@@H]2CC(=O)N12.[Na+] [Preparation 14 (Na^+ Salt)]")
"label 0"
>>> classname("O=C([O-])C1=C(Cc2ccccc2)S[C@@H]2CC(=O)N12.[Na+] [Example 13, Sodium 2-Benzylpenem-3-carboxylate]")
"label 0"
>>> classname("NCCCCCC1=C(C(=O)O)N2C(=O)C[C@H]2S1")
"label 0"
